Overview of reported PBM binding z-score across a group of sequences:
System: PPARa:RXRa (NR concentration 270 nM, RXRa partner concentration 90 nM)
Test: PBM binding z-score (relative to random genomic background probes); higher = stronger binding; sequences stand for … in GC…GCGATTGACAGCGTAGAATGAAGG

>>> assay_result("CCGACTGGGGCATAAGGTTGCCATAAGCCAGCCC")
0.636

Query :: For the record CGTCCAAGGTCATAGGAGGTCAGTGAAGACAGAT , what value of PBM binding z-score is listed for PPARa:RXRa (NR concentration 270 nM, RXRa partner concentration 90 nM)?
Result :: 5.84

Query :: What would you report for GATACCGGGTCAAGGCCAGAGTACGCGTATTGAT ?
Result :: 5.08
